outcome measure: glass transition temperature (°C)
Unit °C implied. Number only.

The following compounds have reported results that may help.
*Oc1cccc(NC(=O)c2cccc(C(=O)Nc3ccc(Oc4ccc(C(=O)c5ccc(*)cc5)cc4)cc3)c2)c1 (repeat unit) :: 114.00
*c1ccc2c(c1)C(=O)N(c1ccc(N3C(=O)c4ccc(-c5c(-c6ccccc6)c(-c6ccccc6)c(-c6ccc(Sc7ccc(-c8c(-c9ccccc9)c(-c9ccccc9)c(*)c(-c9ccccc9)c8-c8ccccc8)cc7)cc6)c(-c6ccccc6)c5-c5ccccc5)cc4C3=O)cc1)C2=O (repeat unit) :: 344.00
*c1ccc2c(c1)C(=O)N(c1ccc(Oc3ccccc3-c3ccccc3Oc3ccc(N4C(=O)c5ccc(C(*)(C(F)(F)F)C(F)(F)F)cc5C4=O)cc3)cc1)C2=O (repeat unit) :: 78.00
*Oc1ccc(CC(NC(=O)Cc2ccc(OC(=O)CCC(*)=O)cc2)C(=O)OCCCCCCCC)cc1 (repeat unit) :: 51.00
*Oc1cccc2ccc(Oc3ccc(NC(=O)c4ccc(Oc5ccc(Oc6ccc(C(=O)Nc7ccc(*)cc7)cc6)cc5)cc4)cc3)cc12 (repeat unit) :: 224.00
*Oc1ccc(S(=O)(=O)c2ccc(Oc3ccc(C(c4ccccc4)(c4ccccc4)c4ccc(*)cc4)cc3)cc2)cc1 (repeat unit) :: 230.00
*CC#CC#CCOc1ccc(C(=O)OCCN(CCOC(=O)c2ccc(O*)cc2)c2ccc(/N=N/c3ccc(C#N)cc3)cc2)cc1 (repeat unit) :: 121.00
*CC(*)OC(=O)c1ccccc1OC (repeat unit) :: 65.00

Next compound, glass transition temperature to be filled in.
Exam item: Quick one: glass transition temperature of *CCOCCOP(=O)(/N=N/c1ccc(-c2ccc(/N=N/P(=O)(O*)OC)cc2)cc1)OC (repeat unit) ?
Marked response: 22.00

---

Returns y if the recorded glass transition temperature is greater than or equal to 200 °C, and n otherwise.

# example entries with known answers
*c1cccc(N2C(=O)c3cccc(Oc4cccc(Oc5cccc6c5C(=O)N(*)C6=O)c4)c3C2=O)c1 (repeat unit) :: y
*CC(*)C1CCCCC1C (repeat unit) :: n
*c1ccc(-c2cnc3ccc(-c4ccc5nc(*)cnc5c4)cc3n2)cc1 (repeat unit) :: y
*CC(*)c1ccc([Si](O[Si](C)(C)C)(O[Si](C)(C)C)O[Si](C)(C)C)cc1 (repeat unit) :: n
*C(=O)Nc1ccc(-c2ccc(NC(=O)c3ccc4c(c3)C(=O)N(c3ccc(Oc5ccc(N6C(=O)c7ccc(*)cc7C6=O)cc5-c5ccccc5)c(-c5ccccc5)c3)C4=O)cc2)cc1 (repeat unit) :: y
*CC(F)(F)/C(F)=C(/*)Cl (repeat unit) :: n
*c1ccc2c(c1)C(=O)N(c1cc(C(=O)Oc3ccc(C(c4ccc(OC(=O)c5ccc(C)c(N6C(=O)c7ccc(C(*)(C(F)(F)F)C(F)(F)F)cc7C6=O)c5)cc4)(C(F)(F)F)C(F)(F)F)cc3)ccc1C)C2=O (repeat unit) :: y
*Oc1ccc(Cc2ccc(OC(=O)c3cc(OCCCCC)cc(C(*)=O)c3)cc2)cc1 (repeat unit) :: n
*Oc1ccc(N(CC)c2ccc(/C=C(\C#N)C(=O)NC3CCCCC3NC(=O)/C(C#N)=C/c3ccc(N(CC)c4ccc(*)cc4)cc3)cc2)cc1 (repeat unit) :: y
*CC(*)(CC(=O)OCCOCCOC)C(=O)OCCOCCOC (repeat unit) :: n

Exam item: Reported glass transition temperature at or above 200 °C? *CC(*)c1ccc(CCCCCCCCCCCCCCCC)cc1 (repeat unit)
Marked response: n

Exam item: Reported glass transition temperature at or above 200 °C? *CCCCCCCCNC(=O)c1ccc(C(=O)N*)c(Sc2ccccc2)c1 (repeat unit)
Marked response: n

Exam item: Reported glass transition temperature at or above 200 °C? *O[Si](C)(C)O[Si](C)(C)O[Si](C)(C)O[Si](C)(C)OC(C)CCC(*)C (repeat unit)
Marked response: n
